testName: Reaction kinetics analysis for lactose hydrolysis
runParameters: 100° C.; homogeneous (non-immobilized) catalyst; amino acids 82-84 mM; 95% confidential intervals
quantity: kd,app, apparent rate constant for glucose degradation (s⁻¹)

O=C(O)CCC(C(=O)O)N1C(=O)CCC1=O (stereo not shown) [GA-MAL-H]
6.11e-07
O=S(=O)(O)O [sulfuric acid]
1.08e-06
O=C(O)CCC(C(=O)O)N1C(=O)C2C(C1=O)C1(CCC(=O)CCC34CCC(CO)(O3)C3C(=O)N(C(CCC(=O)O)C(=O)O)C(=O)C34)CCC2(CO)O1 (stereo not shown) [PHAH-GA-MAL-H]
4.44e-07
N[C@@H](Cc1ccc(O)cc1)C(=O)O [tyrosine, L-tyrosine]
1.4e-07

Cited source for all entries: patent US20240131499A1
